Molecular target: DRB1*0901 (Homo sapiens, UniProt P01903+P01911, A100R/A103E/D57H/D86V/F55Y/F60I/F76Y/I96F/K127E/L162R/M171V/P40D/Q125H/Q99R/R33Q/R42F/S133A/S66N/T210M/V115G/W38K/Y107V/Y59G/Y89S)
Test: biochemical
Format: binding
pIC50: −log10 of the molar value.
Property Measured: pIC50

Lookup: I have this compound here, CC(C)C[C@H](NC(=O)[C@H](CC(=O)O)NC(=O)[C@H](CCCCN)NC(=O)[C@H](Cc1ccccc1)NC(=O)[C@H](C)NC(=O)[C@H](Cc1ccccc1)NC(=O)[C@H](CCC(=O)O)NC(=O)[C@H](Cc1ccccc1)NC(=O)[C@@H](NC(=O)[C@@H](N)CCC(=O)O)C(C)C)C(=O)N[C@@H](Cc1ccccc1)C(=O)N[C@H](C(=O)N[C@H](C(=O)N[C@@H](Cc1ccc(O)cc1)C(=O)N[C@@H](CCCNC(=N)N)C(=O)O)C(C)C)C(C)C [Peptide 1543.35] , and I need its recorded pIC50.
Found: < 4.70

Data credit: patent US9340577B2
